Cited source: patent US20250000855A1

Tested on: THP-1 cells
Assay: Propidium iodide (PI) uptake / cell membrane integrity in TBZ-induced necroptosis
Assay type: cell-based, human
Conditions: Homo sapiens, THP-1; concentration-dependent APO treatment, FIG. 1D; read-out: IC50, change in cell membrane integrity
Measured endpoint: pIC50
# reply with the number alone; pIC50 is -log10 of concentration in mol/L

In: Entry under review: CN1CCc2cccc3c2[C@H]1Cc1ccc(O)c(O)c1-3 . Reported pIC50?
Out: 5.24

----------
Biological target: MLKL N-term domain (amino acids 1-154) (Homo sapiens)
Sequence (Q8NB16 1-154): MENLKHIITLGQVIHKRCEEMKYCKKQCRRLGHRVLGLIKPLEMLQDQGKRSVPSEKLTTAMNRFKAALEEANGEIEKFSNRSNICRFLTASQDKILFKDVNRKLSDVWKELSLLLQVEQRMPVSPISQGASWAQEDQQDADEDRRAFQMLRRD
Give measured Kd for each item. Keep answers brief.
Units required after the number.

In: Kd lookup needed for CN1CCc2cccc3c2[C@H]1Cc1ccc(O)c(O)c1-3 [reduced APO] , thanks.
Out: 1140 µM

In: Item under review: CN1CCc2cccc3c2[C@H]1Cc1ccc(O)c(O)c1-3 [APO, apomorphine] . Reported Kd?
Out: 0.0625 µM
